Molecular target: human LYPLA1 (Homo sapiens, UniProt O75608)
Construct: endogenous human LYPLA1/2 in a HeLa soluble proteome; endogenous in cells; host or cells: HeLa (soluble proteome in vitro; cultured cells in situ)
Sequence (O75608 whole entry): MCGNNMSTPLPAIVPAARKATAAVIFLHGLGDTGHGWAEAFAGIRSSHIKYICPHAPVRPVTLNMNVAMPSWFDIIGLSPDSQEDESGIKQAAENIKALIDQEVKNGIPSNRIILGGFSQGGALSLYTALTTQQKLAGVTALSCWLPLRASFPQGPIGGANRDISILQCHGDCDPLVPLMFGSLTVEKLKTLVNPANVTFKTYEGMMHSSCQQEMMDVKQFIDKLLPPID
Assay: IC50 by gel-based competitive ABPP in situ, cultured HeLa cells
Type: cell-based
Settings: 2 h, serum-supplemented medium
Description: Assay Overview: The purpose of this assay was to determine IC50 values of powder samples of test compounds for enzyme of interest activity in situ using a gel-based competitive ABPP assay. In this assay, cultured cells were treated with test compound, harvested, and lysed. The isolated soluble proteome fraction was reacted with FP-Rh and analyzed by SDS-PAGE as described above. […]
ATTRIBUTE MEASURED: pIC50
To interpret pIC50, take it as minus log10 of a concentration measured in moles per litre.

QUERY: Report pIC50 for O=C(ON1C(=O)C2CN(C(=O)N3CCOCC3)CCN2C1=O)N1CCC(CCc2ccc(Cl)cc2)CC1 (stereo not shown) tested on human LYPLA1 (Homo sapiens, UniProt O75608).
RESULT: 7.06

###

Parameter LYPLA2 in vitro enzyme activity, % @ 1 μM: see the listing below.
target: LYPLA2 (Mus musculus); construct: a complex proteome endogenously expressing LYPLA1/2 was incubated with test compound; from tissue; host or cells: mouse brain, membrane fraction; assay: Gel-based competitive ABPP in vitro, mouse brain membrane proteome; format: biochemical; conditions: 1 μM, mouse brain (mem) proteome
Sequence (Q9WTL7 whole entry): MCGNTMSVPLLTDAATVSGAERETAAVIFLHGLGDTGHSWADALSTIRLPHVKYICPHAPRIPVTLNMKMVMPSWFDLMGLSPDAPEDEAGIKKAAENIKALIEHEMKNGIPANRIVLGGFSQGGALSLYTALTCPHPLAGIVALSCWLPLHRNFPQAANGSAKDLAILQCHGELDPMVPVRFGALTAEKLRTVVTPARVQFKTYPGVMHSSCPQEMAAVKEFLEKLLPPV
Report as a plain number; the unit % @ is understood.

These recorded examples may help you get a feel for the data.
[[record]]
compound = "O=C(ON1C(=O)[C@H]2CN(C(=O)N3CCOCC3)CCN2C1=O)N1CCC(CCc2ccc(Cl)cc2)CC1 [Compound 51]"
subject_of_test = "LYPLA2 (Mus musculus)"
recorded_measurement = 100

[[record]]
compound = "C#Cc1ccc(CCC2CCN(C(=O)ON3C(=O)C4CN(C(=O)N5CCOCC5)CCN4C3=O)CC2)cc1 (centres unmarked) [Compound 53]"
subject_of_test = "LYPLA2 (Mus musculus)"
recorded_measurement = 75

[[record]]
compound = "C#Cc1ccc(CCC2CCN(C(=O)ON3C(=O)[C@H]4CN(C(=O)N5CCOCC5)CCN4C3=O)CC2)cc1 [Compound 49]"
subject_of_test = "LYPLA2 (Mus musculus)"
recorded_measurement = 75

[[record]]
compound = "C#Cc1ccc(CCC2CCN(C(=O)ON3C(=O)[C@@H]4CN(C(=O)N5CCOCC5)CCN4C3=O)CC2)cc1 [Compound 48]"
subject_of_test = "LYPLA2 (Mus musculus)"
recorded_measurement = 75


Attention now turns to another entry.
QUERY: Param item = O=C(ON1C(=O)[C@@H]2CN(C(=O)N3CCOCC3)CCN2C1=O)N1CCC(CCc2ccc(Cl)cc2)CC1 [Compound 50] ; retrieve measured LYPLA2 in vitro enzyme activity, % @ 1 μM.
RESULT: 100

###

Parameter LYPLA1 in vitro enzyme activity, % @ 10 μM: see the listing below.
molecular target: LYPLA1 (Mus musculus); construct: a complex proteome endogenously expressing LYPLA1/2 was incubated with test compound; from tissue; host or cells: mouse brain, membrane fraction; assay: Gel-based competitive ABPP in vitro, mouse brain membrane proteome; type: biochemical; conditions: 10 μM, mouse brain (mem) proteome
Sequence (P97823 whole entry): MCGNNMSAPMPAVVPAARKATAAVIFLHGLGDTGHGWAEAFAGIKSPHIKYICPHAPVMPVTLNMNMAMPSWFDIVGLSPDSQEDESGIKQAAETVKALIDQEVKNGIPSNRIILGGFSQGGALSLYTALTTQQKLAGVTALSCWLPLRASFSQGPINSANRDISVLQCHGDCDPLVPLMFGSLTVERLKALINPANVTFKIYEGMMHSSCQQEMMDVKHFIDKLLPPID
Report as a plain number; the unit % @ is understood.

These recorded examples may help you get a feel for the data.
[[record]]
molecule = "C#CCOc1ccc(N2CCN(C(=O)ON3C(=O)[C@H]4CN(Cc5ccc(Oc6ccccc6)cc5)CCN4C3=O)CC2)cc1"
recorded_measurement = 0

[[record]]
molecule = "COc1ccc(N2CCN(C(=O)ON3C(=O)[C@H]4CN(CC5CCN(Cc6ccccc6)CC5)CCN4C3=O)CC2)cc1"
recorded_measurement = 0


Attention now turns to another entry.
QUERY: Param item = COc1ccc(N2CCN(C(=O)ON3C(=O)C4CN(CC5CCN(Cc6ccccc6)CC5)CCN4C3=O)CC2)cc1 (stereo not drawn) ; retrieve measured LYPLA1 in vitro enzyme activity, % @ 10 μM.
RESULT: 0
